target: von Willebrand factor (VWF) (Homo sapiens, UniProt P04275 P04275:764-2813); test: filter; Bmax 82%; 2 mM CaCl2, 37 C; settings: tags: factor VIII free, Haematologic Technologies Inc; label: 5'-32P
Could you please report measured pKd for the items listed next?
Answers are plain numbers, as −log10 of the molar value.

>>> reported_result("ACGAACUGCCCUCUUAUGACGCACAGACGU (ssRNA, 2'-F C and U; 2'-OH A and G; 3' idT) [T68]")
7.80

Report pKd for every entry below.
1. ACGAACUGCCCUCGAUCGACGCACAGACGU (ssRNA, mAmCmGmAmAmCfUrGfCfCfCfUmCmGmAmUmCmGrAfCrGfCrAmCmAmGmAmCmGfU-idT) [T59 vrt6]
2. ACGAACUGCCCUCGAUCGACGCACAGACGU (ssRNA, mAmCmGmAmAmCmUmGfCfCfCmUmCmGmAmUmCmGmAfCrGfCmAmCmAmGmAmCmGfU-idT) [T59 vrt19]

Resp:
1. 9.30
2. 8.26

Where these numbers come from: patent US20190218553
